Recorded pIC50 for the following compounds
system: Panc 02; assay: Proliferation assay, Panc 02 cells; assay type: cell-based; conditions: Mus musculus, Panc02
pIC50: −log10 of the molar value.
ASSAY_ENDPOINT: pIC50

# COMPOUND, TARGET_OR_TEST_SYSTEM, ASSAY_ENDPOINT, MEASURED
rows = [
    ("O=c1[nH]c(=O)n(C2CCCO2)cc1F (stereo not drawn) [Tegafur, tegafur, reference compound]", "Panc 02", "pIC50", 3.75),
    ("CCCC(=O)OCn1c(=O)c(F)cn(C2CCCO2)c1=O (stereo not drawn)", "Panc 02", "pIC50", 4.34),
    ("O=c1c(F)cn([C@H]2CCCO2)c(=O)n1CO", "Panc 02", "pIC50", 4.02),
]

---

test system: HT-29; experiment: Proliferation assay, HT-29 cells; format: cell-based, human; details: Homo sapiens, HT-29, HT-29
ASSAY_ENDPOINT: IC50 (µM)

# COMPOUND, MEASURED
measured = [
    ("O=c1[nH]c(=O)n(C2CCCO2)cc1F (stereo not drawn) [Tegafur, tegafur, reference compound]", 201),
    ("CCCC(=O)OCn1c(=O)c(F)cn(C2CCCO2)c1=O (stereo not drawn)", 35),
    ("O=c1c(F)cn([C@H]2CCCO2)c(=O)n1CO", 67),
]

---

test system: HT-29; test: Proliferation assay, HT-29 cells; assay type: cell-based, human; conditions: HT-29; + SC (semicarbazide) 500 μM

# COMPOUND, READING_UNIT, IC50
measured = [
    ("CCCC(=O)OCn1c(=O)c(F)cn(C2CCCO2)c1=O (stereo not shown) [AN-420]", "µM", 51),
]

Reference source: patent US20070293517A1
